biological target: hGLP-1R (Homo sapiens, UniProt P43220); experiment: cell-based or functional assay
Sequence (P43220 24-463): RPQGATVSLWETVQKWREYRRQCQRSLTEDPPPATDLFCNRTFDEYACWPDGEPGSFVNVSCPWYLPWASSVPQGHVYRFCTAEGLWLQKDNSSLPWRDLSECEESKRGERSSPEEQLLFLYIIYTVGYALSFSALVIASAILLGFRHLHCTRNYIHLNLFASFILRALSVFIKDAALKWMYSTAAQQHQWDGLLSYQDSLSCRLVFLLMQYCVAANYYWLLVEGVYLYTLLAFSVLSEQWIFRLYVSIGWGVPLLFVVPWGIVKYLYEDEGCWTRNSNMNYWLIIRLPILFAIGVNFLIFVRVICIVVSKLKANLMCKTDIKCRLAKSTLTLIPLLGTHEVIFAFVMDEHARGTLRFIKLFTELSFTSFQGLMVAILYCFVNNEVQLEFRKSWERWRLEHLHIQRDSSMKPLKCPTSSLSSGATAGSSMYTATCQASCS
# if value of Relative cAMP EC50 reaches 0.6 nM, tag Satisfied; if it stays below, tag Not satisfied

Evaluate YXQGTXTSDXSILLDXKAQXXFIEXLEEGGPSSGAPPPSGTGE (synthetic construct; SITE 2: note = 2-Aminoisobutyric Acid; SITE 6: note = alpha-methyl-2-fluoro-L-phenylalanine; SITE 10: note = 3-(4-Pyridyl)-L-alanine; SITE 16: note = L-ornithine; SITE 17: note = Lysine is chemically modified through conjugation of the epsilon-amino group of the Lysine side chai) [Example 674 (SEQ ID NO: 680)] : Relative cAMP EC50 at minimum 0.6 nM?
Not satisfied

Evaluate YXQGTFTSDFSXXLDKKAQXAFIEYLIEXGESSGAPPPSGE (non-natural residues; lipidated Lys; C-terminal amide; synthetic construct; SITE 2: note = 2-Aminoisobutyric Acid; SITE 12: note = L-ornithine; SITE 13: note = alpha-methyl-leucine; SITE 17: note = Lysine is chemically modified through conjugation of the epsilon-amino group of the Lysine side chain with (2-[2-(2-Amino-ethoxy)-ethoxy]-acetyl)-(gamma-Glu)) [Example 219] : Relative cAMP EC50 at minimum 0.6 nM?
Satisfied

Evaluate YXQGTXTSDXXIXLDXKAAXEFIEXLVEGGPSSGEPPPSGS (synthetic construct; SITE 2: note = 2-Aminoisobutyric Acid; SITE 6: note = alpha-methyl-2-fluoro-L-phenylalanine; SITE 10: note = 3-(4-Pyridyl)-L-alanine; SITE 11: note = alpha-methyl-L-serine; SITE 13: note = alpha-methyl-leucine; SITE 16: note = L-ornithine; SITE 17: note = Lysine is chemically mo) [Example 695 (SEQ ID NO: 701)] : Relative cAMP EC50 at minimum 0.6 nM?
Not satisfied

Evaluate YXQGTXTSDXXIXLDXKAQXEFIEXLVEGGPSSGEPPPTGE (not fully specified; Aib, αMeF(2F), 4Pal, αMeS, Orn, Me4Pal, αMeY; acylated; amide; synthetic construct; SITE 2: note = 2-Aminoisobutyric Acid; SITE 6: note = alpha-methyl-2-fluoro-L-phenylalanine; SITE 10: note = 3-(4-Pyridyl)-L-alanine; SITE 11: note = alpha-methyl-L-serine; SITE 13: note = alpha-methyl-leucine; SITE 16: note = L-ornithine; SITE 17: note = Lysine is chemically mo) [Example 1153] : Relative cAMP EC50 at minimum 0.6 nM?
Not satisfied

Evaluate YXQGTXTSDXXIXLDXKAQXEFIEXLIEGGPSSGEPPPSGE (non-natural residues (Aib, αMeF, 4Pal, Orn, Me4Pal); lipidated Lys; C-amide; synthetic construct; SITE 2: note = 2-Aminoisobutyric Acid; SITE 6: note = alpha-methyl-L-phenylalanine; SITE 10: note = 3-(4-Pyridyl)-L-alanine; SITE 11: note = alpha-methyl-L-serine; SITE 13: note = alpha-methyl-leucine; SITE 16: note = L-ornithine; SITE 17: note = Lysine is chemically modified th) [Example 1165] : Relative cAMP EC50 at minimum 0.6 nM?
Satisfied

Evaluate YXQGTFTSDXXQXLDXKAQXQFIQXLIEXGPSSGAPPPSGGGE (not fully specified; N-methyl-Tyr, non-natural residues, acylated Lys (γGlu-C18 diacid), C-terminal amide; synthetic construct; SITE 1: note = N-methyl-tyrosine; SITE 2: note = 2-Aminoisobutyric Acid; SITE 10: note = 3-(4-Pyridyl)-L-alanine; SITE 11: note = alpha-methyl-L-serine; SITE 13: note = alpha-methyl-leucine; SITE 16: note = L-ornithine; SITE 17: note = Lysine is chemically modified …) [Example 1134] : Relative cAMP EC50 at minimum 0.6 nM?
Satisfied
